This collection of values is drawn from the supplement of paper PMC7726561.

Biological target: HLA-B*07:02;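 also: lysates heated 10 min at 37–73 °C, complexes pulled down with pan-HLA I antibody, peptide signal by DIA-MS relative to 37 °C, Tm where half the complex is unfolded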
Assay: thermal melting temperature (Tm) of peptide-HLA complex; higher = more thermostable pHLA complex
Conditions: C1R-B*07:02
Over roughly 1,400 sequences, “thermal melting temperature (Tm) of peptide-HLA complex” has its median near 60; the lowest 2% begin near 45. The entries come from a sample that favours the lowest values as a whole.
attribute measured: thermal melting temperature
// return the numeric value with its unit appended

Recorded thermal melting temperature, per entry:
>  <residue string>
RPAPLVQQL

>  <attribute measured>
thermal melting temperature

>  <result>
58.3 °C

$$$$
>  <residue string>
LPSKPSSTL

>  <attribute measured>
thermal melting temperature

>  <result>
58.1 °C

$$$$
>  <residue string>
FPKNIFAEL

>  <attribute measured>
thermal melting temperature

>  <result>
62.8 °C

$$$$
>  <residue string>
RPFERTITM

>  <attribute measured>
thermal melting temperature

>  <result>
56.5 °C

$$$$
>  <residue string>
KPYPIAEVEQL

>  <attribute measured>
thermal melting temperature

>  <result>
42.7 °C

$$$$

Req: Specify measured thermal melting temperature for "KPMPSLPQL" .
Resp: 44.9 °C

Req: Specify measured thermal melting temperature for "SPRPALPALL" .
Resp: 60.2 °C

Req: Specify measured thermal melting temperature for "KVRGISEVL" .
Resp: 60.5 °C
